# MEASURED_TARGET: hGHQ40N (human, UniProt P01241 27-217)
# Sequence (P01241 27-217 Q66N): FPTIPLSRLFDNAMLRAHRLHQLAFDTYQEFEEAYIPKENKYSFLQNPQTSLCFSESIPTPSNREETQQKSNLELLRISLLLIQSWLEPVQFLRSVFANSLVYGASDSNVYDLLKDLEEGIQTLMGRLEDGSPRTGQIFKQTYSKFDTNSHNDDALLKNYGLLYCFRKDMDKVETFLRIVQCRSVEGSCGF
# RUN_DESCRIPTION: cell-based or functional assay
RECORDED_ENDPOINT: RSA Q141

BINDER	RSA Q141
S. ladakanum GlyPro-TGase mutant S250V (enzyme) GPDSDERVTPPAEPLDRMPDPYRPSYGRAETIVNNYIRKWQQVYSHRDGRKQQMTEEQREWLSYGCVGVTWVNSGQYPTNRLAFAFFDEDKYKNELKNGRPRSGETRAEFEGRVAKDSFDEAKGFQRARDVASVMNKALENAHDEGAYLDNLKKELANGNDALRNEDARSPFYSALRNTPSFKDRNGGNHDPSKMKAVIYSKHFWSGQDRSGSSDKRKYGDPEAFRPDRGTGLVDMSRDRNIPRSPTSPGEVFVNFDYGWFGAQTEADADKTVWTHGNHYHAPNGSLGAMHVYESKFRNWSDGYSDFDRGAYVVTFVPKSWNTAPDKVKQGWP	0.96 relative to wild type TGase
S. ladakanum GlyPro-TGase mutant S250R (enzyme) GPDSDERVTPPAEPLDRMPDPYRPSYGRAETIVNNYIRKWQQVYSHRDGRKQQMTEEQREWLSYGCVGVTWVNSGQYPTNRLAFAFFDEDKYKNELKNGRPRSGETRAEFEGRVAKDSFDEAKGFQRARDVASVMNKALENAHDEGAYLDNLKKELANGNDALRNEDARSPFYSALRNTPSFKDRNGGNHDPSKMKAVIYSKHFWSGQDRSGSSDKRKYGDPEAFRPDRGTGLVDMSRDRNIPRSPTSPGERFVNFDYGWFGAQTEADADKTVWTHGNHYHAPNGSLGAMHVYESKFRNWSDGYSDFDRGAYVVTFVPKSWNTAPDKVKQGWP	0.83 relative to wild type TGase
S. ladakanum GlyPro-TGase mutant S250Q (enzyme) GPDSDERVTPPAEPLDRMPDPYRPSYGRAETIVNNYIRKWQQVYSHRDGRKQQMTEEQREWLSYGCVGVTWVNSGQYPTNRLAFAFFDEDKYKNELKNGRPRSGETRAEFEGRVAKDSFDEAKGFQRARDVASVMNKALENAHDEGAYLDNLKKELANGNDALRNEDARSPFYSALRNTPSFKDRNGGNHDPSKMKAVIYSKHFWSGQDRSGSSDKRKYGDPEAFRPDRGTGLVDMSRDRNIPRSPTSPGEQFVNFDYGWFGAQTEADADKTVWTHGNHYHAPNGSLGAMHVYESKFRNWSDGYSDFDRGAYVVTFVPKSWNTAPDKVKQGWP	1.92 relative to wild type TGase
S. ladakanum GlyPro-TGase mutant S250F (enzyme) GPDSDERVTPPAEPLDRMPDPYRPSYGRAETIVNNYIRKWQQVYSHRDGRKQQMTEEQREWLSYGCVGVTWVNSGQYPTNRLAFAFFDEDKYKNELKNGRPRSGETRAEFEGRVAKDSFDEAKGFQRARDVASVMNKALENAHDEGAYLDNLKKELANGNDALRNEDARSPFYSALRNTPSFKDRNGGNHDPSKMKAVIYSKHFWSGQDRSGSSDKRKYGDPEAFRPDRGTGLVDMSRDRNIPRSPTSPGEFFVNFDYGWFGAQTEADADKTVWTHGNHYHAPNGSLGAMHVYESKFRNWSDGYSDFDRGAYVVTFVPKSWNTAPDKVKQGWP	2.63 relative to wild type TGase
S. ladakanum GlyPro-TGase mutant Y62T (enzyme) GPDSDERVTPPAEPLDRMPDPYRPSYGRAETIVNNYIRKWQQVYSHRDGRKQQMTEEQREWLSTGCVGVTWVNSGQYPTNRLAFAFFDEDKYKNELKNGRPRSGETRAEFEGRVAKDSFDEAKGFQRARDVASVMNKALENAHDEGAYLDNLKKELANGNDALRNEDARSPFYSALRNTPSFKDRNGGNHDPSKMKAVIYSKHFWSGQDRSGSSDKRKYGDPEAFRPDRGTGLVDMSRDRNIPRSPTSPGESFVNFDYGWFGAQTEADADKTVWTHGNHYHAPNGSLGAMHVYESKFRNWSDGYSDFDRGAYVVTFVPKSWNTAPDKVKQGWP	0.19 relative to wild type TGase

Quote RSA Q141 reported for S. ladakanum GlyPro-TGase mutant Y62L (enzyme) GPDSDERVTPPAEPLDRMPDPYRPSYGRAETIVNNYIRKWQQVYSHRDGRKQQMTEEQREWLSLGCVGVTWVNSGQYPTNRLAFAFFDEDKYKNELKNGRPRSGETRAEFEGRVAKDSFDEAKGFQRARDVASVMNKALENAHDEGAYLDNLKKELANGNDALRNEDARSPFYSALRNTPSFKDRNGGNHDPSKMKAVIYSKHFWSGQDRSGSSDKRKYGDPEAFRPDRGTGLVDMSRDRNIPRSPTSPGESFVNFDYGWFGAQTEADADKTVWTHGNHYHAPNGSLGAMHVYESKFRNWSDGYSDFDRGAYVVTFVPKSWNTAPDKVKQGWP please.
0.2 relative to wild type TGase

Quote RSA Q141 reported for S. ladakanum GlyPro-TGase mutant S250M (enzyme) GPDSDERVTPPAEPLDRMPDPYRPSYGRAETIVNNYIRKWQQVYSHRDGRKQQMTEEQREWLSYGCVGVTWVNSGQYPTNRLAFAFFDEDKYKNELKNGRPRSGETRAEFEGRVAKDSFDEAKGFQRARDVASVMNKALENAHDEGAYLDNLKKELANGNDALRNEDARSPFYSALRNTPSFKDRNGGNHDPSKMKAVIYSKHFWSGQDRSGSSDKRKYGDPEAFRPDRGTGLVDMSRDRNIPRSPTSPGEMFVNFDYGWFGAQTEADADKTVWTHGNHYHAPNGSLGAMHVYESKFRNWSDGYSDFDRGAYVVTFVPKSWNTAPDKVKQGWP please.
3.25 relative to wild type TGase

Quote RSA Q141 reported for S. ladakanum GlyPro-TGase mutant Y75M (enzyme) GPDSDERVTPPAEPLDRMPDPYRPSYGRAETIVNNYIRKWQQVYSHRDGRKQQMTEEQREWLSYGCVGVTWVNSGQMPTNRLAFAFFDEDKYKNELKNGRPRSGETRAEFEGRVAKDSFDEAKGFQRARDVASVMNKALENAHDEGAYLDNLKKELANGNDALRNEDARSPFYSALRNTPSFKDRNGGNHDPSKMKAVIYSKHFWSGQDRSGSSDKRKYGDPEAFRPDRGTGLVDMSRDRNIPRSPTSPGESFVNFDYGWFGAQTEADADKTVWTHGNHYHAPNGSLGAMHVYESKFRNWSDGYSDFDRGAYVVTFVPKSWNTAPDKVKQGWP please.
0.18 relative to wild type TGase
